Data origin, for the record: patent US10294226B2

# target-or-system: Tyk2-JH1JH2 (Homo sapiens (Human), UniProt P29597, C1142A/C936A)
# Sequence (P29597 580-1182 C936A/C1142A): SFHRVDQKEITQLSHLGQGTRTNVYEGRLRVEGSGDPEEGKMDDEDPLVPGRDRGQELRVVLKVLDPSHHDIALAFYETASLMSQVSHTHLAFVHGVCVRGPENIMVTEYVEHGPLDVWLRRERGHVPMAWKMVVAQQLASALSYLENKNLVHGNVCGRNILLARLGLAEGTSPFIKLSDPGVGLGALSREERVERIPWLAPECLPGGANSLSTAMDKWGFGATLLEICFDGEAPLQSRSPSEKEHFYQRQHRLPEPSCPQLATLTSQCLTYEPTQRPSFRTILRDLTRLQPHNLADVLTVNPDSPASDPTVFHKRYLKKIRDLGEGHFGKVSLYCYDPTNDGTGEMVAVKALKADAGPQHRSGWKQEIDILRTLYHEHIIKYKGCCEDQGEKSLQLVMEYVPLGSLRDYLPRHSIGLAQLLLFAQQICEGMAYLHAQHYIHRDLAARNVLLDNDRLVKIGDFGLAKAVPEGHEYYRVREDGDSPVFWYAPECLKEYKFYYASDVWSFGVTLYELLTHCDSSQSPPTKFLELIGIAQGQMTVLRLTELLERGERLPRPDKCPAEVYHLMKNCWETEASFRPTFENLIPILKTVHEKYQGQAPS
# method-description: Enzymatic inhibition assay (HTMS)
# Assay type: biochemical
# study-conditions: read-out: Tyk2_I_JH1JH2 IC50
property-name: IC50 (pM)
Field: numeric (pM). Do not append units.

I looked up C[C@@H](O)c1nc2cnc3[nH]ccc3c2n1[C@H]1CC[C@H](CC#N)CC1 [C, reference compound] and its IC50 for Tyk2-JH1JH2 (Homo sapiens (Human), UniProt P29597, C1142A/C936A) was 200

----------
# System: P-gp (MDR1)
# method-description: MDCK-MDR1 permeability assay
# Type: in vitro ADME
# study-conditions: dog, MDCK-MDR1, pH 7.4, with elacridar 2 μM, @ 5 μM, apical to basolateral, with P-gp inhibitor elacridar (2 μM); read-out: MDCK-MDR1 P^eapp(A-B)
property-name: Papp A→B at 60 min, 5 μM (×10⁻⁶ cm/s)
Field: numeric (×10⁻⁶ cm/s). Do not append units.

Consider the following illustrative entries.
Form field Papp A→B at 60 min, 5 μM, entry CC(C)(O)CNC(=O)Cc1nc2cnc3[nH]ccc3c2n1[C@H]1CC[C@H](CC#N)CC1 [Ex. 1] : 1.1

Form field Papp A→B at 60 min, 5 μM, entry N#CC[C@H]1CC[C@H](n2c(CC(=O)NCC3CC3)nc3cnc4[nH]ccc4c32)CC1 [Ex. 3] : 2.3

Form field Papp A→B at 60 min, 5 μM, entry CC(C)(C#N)CNC(=O)Cc1nc2cnc3[nH]ccc3c2n1[C@H]1CC[C@H](CC#N)CC1 [Ex. 7] : 1.2

# ---- query compound ----
Form field Papp A→B at 60 min, 5 μM, entry Cn1cc(NC(=O)Cc2nc3cnc4[nH]ccc4c3n2[C@H]2CC[C@H](CC#N)CC2)cn1 [Ex. 9] : 0.6

----------
# target-or-system: Tyk2-JH1JH2 (Homo sapiens (Human), UniProt P29597, C1142A/C936A)
# method-description: Enzymatic inhibition assay (HTMS)
# Assay type: biochemical
# study-conditions: 50 μM ATP; read-out: Tyk2_I_JH1JH2 IC50
Below, each entry is listed alongside its reported pIC50.
Expect pIC50 as a plain number equal to -log10 of the molar concentration.

Consider the following illustrative entries.
I looked up N#CC[C@H]1CC[C@H](n2c(CC(=O)NCC3(O)CCC3)nc3cnc4[nH]ccc4c32)CC1 and its pIC50 for Tyk2-JH1JH2 (Homo sapiens (Human), UniProt P29597, C1142A/C936A) was 8.18

I looked up CC(C)(O)CNC(=O)Cc1nc2cnc3[nH]ccc3c2n1[C@H]1CC[C@H](CC#N)CC1 and its pIC50 for Tyk2-JH1JH2 (Homo sapiens (Human), UniProt P29597, C1142A/C936A) was 8.13

I looked up N#CCC12CCC(NC(=O)Cc3nc4cnc5[nH]ccc5c4n3[C@H]3CC[C@H](CC#N)CC3)(CC1)C2 and its pIC50 for Tyk2-JH1JH2 (Homo sapiens (Human), UniProt P29597, C1142A/C936A) was 8.05

I looked up N#CC[C@H]1CC[C@H](n2c(CC(=O)NCC3CCOCC3)nc3cnc4[nH]ccc4c32)CC1 and its pIC50 for Tyk2-JH1JH2 (Homo sapiens (Human), UniProt P29597, C1142A/C936A) was 8.96

I looked up N#CCCNC(=O)Cc1nc2cnc3[nH]ccc3c2n1[C@H]1CC[C@H](CC#N)CC1 and its pIC50 for Tyk2-JH1JH2 (Homo sapiens (Human), UniProt P29597, C1142A/C936A) was 8.66

I looked up N#CC[C@H]1CC[C@H](n2c(CC(=O)NC3CCOCC3)nc3cnc4[nH]ccc4c32)CC1 and its pIC50 for Tyk2-JH1JH2 (Homo sapiens (Human), UniProt P29597, C1142A/C936A) was 8.39

Next:
I looked up N#CC[C@H]1CC[C@H](n2c(CC(=O)NCC3(O)CC3)nc3cnc4[nH]ccc4c32)CC1 and its pIC50 for Tyk2-JH1JH2 (Homo sapiens (Human), UniProt P29597, C1142A/C936A) was 8.06

I looked up CC(C)(C#N)CNC(=O)Cc1nc2cnc3[nH]ccc3c2n1[C@H]1CC[C@H](CC#N)CC1 and its pIC50 for Tyk2-JH1JH2 (Homo sapiens (Human), UniProt P29597, C1142A/C936A) was 8.32

----------
# Tested on: IL-2 pSTAT5 (JAK1/JAK3)
# method-description: IL-2 pSTAT5 (JAK1/JAK3) cellular assay, AlphaLISA in PBMCs
# Type: cell-based
# study-conditions: PBMC, IL-2 5 ng/mL
property-name: IC50 (nM)
Field: numeric (nM). Do not append units.

Consider the following illustrative entries.
I looked up N#CC[C@H]1CC[C@H](n2c(CC(=O)NC3CCOCC3)nc3cnc4[nH]ccc4c32)CC1 and its IC50 for IL-2 pSTAT5 (JAK1/JAK3) was 6.4

I looked up CC(C)(C#N)CNC(=O)Cc1nc2cnc3[nH]ccc3c2n1[C@H]1CC[C@H](CC#N)CC1 and its IC50 for IL-2 pSTAT5 (JAK1/JAK3) was 9.7

I looked up N#CC[C@H]1CC[C@H](n2c(CC(=O)NCC3(O)CCC3)nc3cnc4[nH]ccc4c32)CC1 and its IC50 for IL-2 pSTAT5 (JAK1/JAK3) was 20.6

I looked up N#CC[C@H]1CC[C@H](n2c(CC(=O)NCC3(O)CC3)nc3cnc4[nH]ccc4c32)CC1 and its IC50 for IL-2 pSTAT5 (JAK1/JAK3) was 13.9

I looked up CC(C)(O)CNC(=O)Cc1nc2cnc3[nH]ccc3c2n1[C@H]1CC[C@H](CC#N)CC1 and its IC50 for IL-2 pSTAT5 (JAK1/JAK3) was 21.6

Next:
I looked up N#CC[C@H]1CC[C@H](n2c(CC(=O)NCC3CC3)nc3cnc4[nH]ccc4c32)CC1 and its IC50 for IL-2 pSTAT5 (JAK1/JAK3) was 6.4

I looked up N#CCC12CCC(NC(=O)Cc3nc4cnc5[nH]ccc5c4n3[C@H]3CC[C@H](CC#N)CC3)(CC1)C2 and its IC50 for IL-2 pSTAT5 (JAK1/JAK3) was 16.8

I looked up N#CC[C@H]1CC[C@H](n2c(CC(=O)NCC3CCOCC3)nc3cnc4[nH]ccc4c32)CC1 and its IC50 for IL-2 pSTAT5 (JAK1/JAK3) was 6.7

I looked up N#CCCNC(=O)Cc1nc2cnc3[nH]ccc3c2n1[C@H]1CC[C@H](CC#N)CC1 and its IC50 for IL-2 pSTAT5 (JAK1/JAK3) was 35.5

I looked up N#CC[C@H]1CC[C@H](n2c(-c3c[nH]cn3)nc3cnc4[nH]ccc4c32)CC1 and its IC50 for IL-2 pSTAT5 (JAK1/JAK3) was 9

I looked up N#CC[C@H]1CC[C@H](n2c(CC(=O)Nc3cc[nH]n3)nc3cnc4[nH]ccc4c32)CC1 and its IC50 for IL-2 pSTAT5 (JAK1/JAK3) was 49.1

I looked up Cn1cc(NC(=O)Cc2nc3cnc4[nH]ccc4c3n2[C@H]2CC[C@H](CC#N)CC2)cn1 and its IC50 for IL-2 pSTAT5 (JAK1/JAK3) was 11.2

----------
# method-description: physchem
# study-conditions: simulated gastric fluid, thermodynamic from solid
Below, each entry is listed alongside its reported solubility.

Consider the following illustrative entries.
Form field solubility, entry N#CC[C@H]1CC[C@H](n2c(CO)nc3cnc4[nH]ccc4c32)CC1 : > 400 µM

Form field solubility, entry Cc1nc2cnc3[nH]ccc3c2n1[C@H]1CC[C@H](CC#N)CC1 : > 400 µM

Next:
Form field solubility, entry C[C@@H](O)c1nc2cnc3[nH]ccc3c2n1[C@H]1CC[C@H](CC#N)CC1 [C, reference compound] : > 400 µM

----------
# study-conditions: pH 6.5
Below, each entry is listed alongside its reported SIF solubility.

Consider the following illustrative entries.
Form field SIF solubility, entry N#CCCNC(=O)Cc1nc2cnc3[nH]ccc3c2n1[C@H]1CC[C@H](CC#N)CC1 : >400 µM

Form field SIF solubility, entry Cn1cc(NC(=O)Cc2nc3cnc4[nH]ccc4c3n2[C@H]2CC[C@H](CC#N)CC2)cn1 : >400 µM

Form field SIF solubility, entry N#CC[C@H]1CC[C@H](n2c(CC(=O)NCC3CCOCC3)nc3cnc4[nH]ccc4c32)CC1 : >400 µM

Form field SIF solubility, entry N#CC[C@H]1CC[C@H](n2c(CC(=O)NCC3CC3)nc3cnc4[nH]ccc4c32)CC1 : >400 µM

Form field SIF solubility, entry N#CC[C@H]1CC[C@H](n2c(-c3c[nH]cn3)nc3cnc4[nH]ccc4c32)CC1 : >400 µM

Next:
Form field SIF solubility, entry N#CC[C@H]1CC[C@H](n2c(CC(=O)NCC3(O)CC3)nc3cnc4[nH]ccc4c32)CC1 : >400 µM

Form field SIF solubility, entry N#CC[C@H]1CC[C@H](n2c(CC(=O)NCC3(O)CCC3)nc3cnc4[nH]ccc4c32)CC1 : >400 µM

Form field SIF solubility, entry N#CC[C@H]1CC[C@H](n2c(CC(=O)Nc3cc[nH]n3)nc3cnc4[nH]ccc4c32)CC1 : >400 µM
